Where do these numbers come from? They come from the supplement of paper PMC8728848.

Answer each item with its documented glycan array binding signal (z-score).
Target Or System: GlcNAc(b1-2)Man(a1-3)[GlcNAc(b1-2)Man(a1-6)]Man(b1-4)GlcNAc(b1-4)GlcNAc
Test: glycan array binding signal (z-score within array); higher = stronger binding
Applied Conditions: glycan notation: IUPAC condensed, linker removed
Shown is part of a subset that was picked to be rich in the strongest signals.
Form field (numeric): enter value without unit.

Incoming: Which glycan array binding signal (z-score) value belongs to BC2LB (Burholderia cenocepacia), B4EH85_BURCJ (protein) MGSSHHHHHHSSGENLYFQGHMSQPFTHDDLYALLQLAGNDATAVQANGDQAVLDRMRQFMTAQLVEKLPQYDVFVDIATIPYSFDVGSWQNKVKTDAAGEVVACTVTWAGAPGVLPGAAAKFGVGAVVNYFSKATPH ?
Outgoing: -0.234

Incoming: Which glycan array binding signal (z-score) value belongs to FimD (Bordetella pertussis) (protein) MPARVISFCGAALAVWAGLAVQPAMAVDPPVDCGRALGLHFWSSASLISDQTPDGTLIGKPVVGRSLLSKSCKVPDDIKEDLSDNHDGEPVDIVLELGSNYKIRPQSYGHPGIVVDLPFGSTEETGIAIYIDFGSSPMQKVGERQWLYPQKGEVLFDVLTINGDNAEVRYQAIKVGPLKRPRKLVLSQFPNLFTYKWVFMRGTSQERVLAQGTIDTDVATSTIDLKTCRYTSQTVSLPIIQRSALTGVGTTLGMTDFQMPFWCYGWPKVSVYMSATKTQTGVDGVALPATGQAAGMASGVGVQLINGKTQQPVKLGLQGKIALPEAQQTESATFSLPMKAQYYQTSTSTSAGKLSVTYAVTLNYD ?
Outgoing: 0.004
